# Tested System: UniProtKB Q8NB16
# Sequence (Q8NB16 whole entry): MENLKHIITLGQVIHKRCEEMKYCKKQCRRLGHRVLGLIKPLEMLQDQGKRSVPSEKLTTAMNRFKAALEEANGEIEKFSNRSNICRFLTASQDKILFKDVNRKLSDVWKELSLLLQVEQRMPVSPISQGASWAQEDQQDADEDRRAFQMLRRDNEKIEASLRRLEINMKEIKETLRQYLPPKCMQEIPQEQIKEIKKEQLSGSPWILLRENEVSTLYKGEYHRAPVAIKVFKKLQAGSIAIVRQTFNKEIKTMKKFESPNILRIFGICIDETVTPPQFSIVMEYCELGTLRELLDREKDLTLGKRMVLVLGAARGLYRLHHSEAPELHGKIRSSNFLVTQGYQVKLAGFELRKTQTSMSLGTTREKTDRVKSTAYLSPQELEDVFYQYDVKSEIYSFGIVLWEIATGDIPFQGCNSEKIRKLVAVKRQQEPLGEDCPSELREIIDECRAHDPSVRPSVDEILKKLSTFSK
# Assay Details: KINOMEscan binding assay, human MLKL (full length)
# Measurement Context: hMLKL, Table 25; read-out: MLKL (KD)
pKd: −log10 of the molar value.
A collection of compounds and their measured pKd

Examples from the recorded data:
Cc1ncsc1-c1ccc(CNC(=O)[C@@H]2C[C@@H](O)CN2C(=O)[C@@H](NC(=O)CCCCOC(=O)c2ccc(-c3cnc(N)c4c(-c5ccc(NS(=O)(=O)C(F)F)c(O[C@@H](C)c6ccc(F)cc6)c5)nn(C)c34)cn2)C(C)(C)C)cc1; > 8.00
C[C@H](Oc1cc(-c2nn(C)c3c(-c4cnn(C5CCN(C(=O)CCC6CCN(c7cc8c(cc7F)C(=O)N(C7CCC(=O)NC7=O)C8=O)CC6)CC5)c4)cnc(N)c23)ccc1NS(=O)(=O)C(F)F)c1ccc(F)cc1 (some centres unmarked); 6.00 to 8.00
C[C@H](Oc1cc(-c2nn(C)c3c(-c4cnn(C5CCN(C(=O)c6cccc(C(=O)NC7CCC(=O)NC7=O)c6)CC5)c4)cnc(N)c23)ccc1NS(=O)(=O)C(F)F)c1ccc(F)cc1 (some centres unmarked); > 8.00
Cc1ncsc1-c1ccc(CNC(=O)[C@@H]2C[C@@H](O)CN2C(=O)[C@@H](NC(=O)CCCCCCCn2cc(-c3cnc(N)c4c(-c5ccc(NS(=O)(=O)C(F)F)c(O[C@@H](C)c6ccc(F)cc6)c5)nn(C)c34)cn2)C(C)(C)C)cc1; > 8.00
C[C@H](Oc1cc(-c2nn(C)c3c(-c4cnn(C5CCN(C(=O)C6CN(c7cccc8c7C(=O)N(C7CCC(=O)NC7=O)C8=O)C6)CC5)c4)cnc(N)c23)ccc1NS(=O)(=O)C(F)F)c1ccc(F)cc1 (some centres unmarked); 6.00 to 8.00

Requested read-out: pKd. Entry: `Cc1ncsc1-c1ccc(CNC(=O)[C@@H]2C[C@@H](O)CN2C(=O)[C@@H](NC(=O)COCCOCCn2cc(-c3cnc(N)c4c(-c5ccc(NS(=O)(=O)C(F)F)c(O[C@@H](C)c6ccc(F)cc6)c5)nn(C)c34)cn2)C(C)(C)C)cc1`
> 8.00

Which pKd value is on record for `Cc1ncsc1-c1ccc(CNC(=O)[C@@H]2C[C@@H](O)CN2C(=O)[C@@H](NC(=O)CCCCCCn2cc(-c3cnc(N)c4c(-c5ccc(NS(=O)(=O)C(F)F)c(O[C@@H](C)c6ccc(F)cc6)c5)nn(C)c34)cn2)C(C)(C)C)cc1` ?
> 8.00

# input compound: `Cc1ncsc1-c1ccc(CNC(=O)[C@@H]2C[C@@H](O)CN2C(=O)[C@@H](NC(=O)CCOCCCn2cc(-c3cnc(N)c4c(-c5ccc(NS(=O)(=O)C(F)F)c(O[C@@H](C)c6ccc(F)cc6)c5)nn(C)c34)cn2)C(C)(C)C)cc1` ; wanted: its pKd
> 8.00
